Please go through the items and note down their inhibition at 30 µM.
System Under Test: SMBS on rat lung membranes (Rattus norvegicus)
Construct: from tissue; host or cells: rat lung membranes (SD male rats)
Sequence (A0A8I6A822 27-587): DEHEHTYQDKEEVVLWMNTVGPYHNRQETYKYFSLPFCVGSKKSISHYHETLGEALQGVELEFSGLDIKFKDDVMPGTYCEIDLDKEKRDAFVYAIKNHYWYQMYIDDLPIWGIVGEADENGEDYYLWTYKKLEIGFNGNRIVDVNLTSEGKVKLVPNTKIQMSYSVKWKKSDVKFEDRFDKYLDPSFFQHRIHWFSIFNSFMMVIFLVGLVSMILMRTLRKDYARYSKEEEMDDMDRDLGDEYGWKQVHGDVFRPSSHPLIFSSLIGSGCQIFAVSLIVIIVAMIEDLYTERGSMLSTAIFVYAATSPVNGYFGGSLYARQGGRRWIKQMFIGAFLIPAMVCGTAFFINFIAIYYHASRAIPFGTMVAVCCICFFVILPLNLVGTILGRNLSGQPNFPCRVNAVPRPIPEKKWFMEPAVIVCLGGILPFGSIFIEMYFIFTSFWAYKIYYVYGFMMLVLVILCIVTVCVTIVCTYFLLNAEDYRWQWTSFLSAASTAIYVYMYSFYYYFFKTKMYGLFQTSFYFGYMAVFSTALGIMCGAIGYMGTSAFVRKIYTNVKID
Assay Summary: Receptor binding of the compound in rat lung membranes ([125I]-iodo-cyanopindolol ligand binding assay; Experiments 1 and 4)
Run Parameters: ratio of inhibiting the specific binding of [125I]-iodo-cyanopindolol; test concentration 30 μM; rat lung membranes; read-out: Binding Activity (30 μM)
Numbers only, in %.

Solved entries (count: 5):
* CCNC(=O)NCCCn1c(-c2ccc(OC(F)(F)F)cc2)cs/c1=N\C(=O)c1ccc(OC)cc1OC | 97
* COc1ccc(C(=O)/N=c2\scc(-c3ccc(OC(F)(F)F)cc3)n2CCCNC(=N)N)c(OC)c1 | 87
* COc1ccc(C(=O)/N=c2\scc(-c3ccc(OC(F)(F)F)cc3)n2CCCNC(=N)N2CCCCC2)c(OC)c1 | 108
* COc1ccc(C(=O)/N=c2\scc(C(=O)NCc3ccc(Cl)cc3)n2CCCNC(C)=O)c(OC)c1 | 10
* COc1ccc(C(=O)/N=c2\scc(-c3ccc(OC(F)(F)F)cc3)n2CCCNC(=O)CN(C)C)c(OC)c1 | 85

Below are some compounds; for each one, tell me its inhibition at 30 µM.
1. CCS(=O)(=O)NCCCn1c(-c2ccc(OC(F)(F)F)cc2)cs/c1=N\C(=O)c1ccc(OC)cc1OC
2. COc1ccc(C(=O)/N=c2\scc(-c3ccc(OC(F)(F)F)cc3)n2CCCNC(=O)N2CCOCC2)c(OC)c1

67
103

Request: inhibition at 30 µM, test system SMBS on rat lung membranes (Rattus norvegicus), entry CCNC(=S)NCCCn1c(-c2ccc(OC(F)(F)F)cc2)cs/c1=N\C(=O)c1ccc(OC)cc1OC 65

----------
System Under Test: SMBS on rat lung membranes (Rattus norvegicus)
Construct: from tissue; host or cells: rat lung membranes (SD male rats)
Assay Summary: Receptor binding of the compound in rat lung membranes ([125I]-iodo-cyanopindolol ligand binding assay; Experiments 1 and 4)
Run Parameters: Table 43; concentration tested 30 μM; rat lung membranes; Experiment 4; read-out: Binding Activity (30 μM)
Please respond with reported inhibition at 30 µM for every item in the list.
Give bare numbers, in %.

• CCNC(=O)CNCCCn1c(-c2ccc(N3CCOCC3)cc2)csc1=Nc1ccc(F)cc1 = 101
• O=C(O)CNCCCn1c(-c2ccc(N3CCOCC3)cc2)csc1=Nc1ccc(F)cc1 = 76
• COCCNC(=O)NCCCn1c(-c2ccc(N3CCOCC3)cc2)cs/c1=N\c1ccc(F)cc1 = 89
• COCCNC(=O)NCCCn1c(-c2ccc(OC(F)(F)F)cc2)cs/c1=N\Cc1ccc(Cl)cc1 = 89

// next entry
What value of inhibition at 30 µM has been reported for the following compound? CN(C)C(=O)NCCCn1c(-c2ccc3c(c2)OCO3)cs/c1=N\c1ccc(OC(F)(F)F)cc1 100

Attribution: patent US7396842B2
